Source: patent US20220017636A1

Measured Signal/background by item
TESTED SYSTEM: T1, SLK peptide complexed with HLA-A*02:01 on T2 cells (human)
T1 construct: whole, on cells
EXPERIMENT NOTES: flow cytometry, peptide-loaded T2 cells;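 further: binding of single-chain Fv antibody constructs, raised in XenoMouse, to peptide-pulsed T2 cells measured by flow cytometry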
The answer should be written as a number, with no unit following it.

Exercise: Using known records, supply Signal/background for 18181-C9 (scFv, scFv in bacterial lysate, detected with anti-Flag M2) scFv: EVQLLESGPGLVKPSQTLSLTCTVSGDSISSNPYYWSWIRQLPGKGLEWIGYISYSGSTFYNPSLKSRVTISVDTSKNQFSLNLTSVTAADTAVYYCARDRLWFGVLNYYYGMDVWGLGTTVTVSSGGGGSGGGGSGGGGSELVLTQSPLSLPVTPGEPASISCRSSQSLLHRNGYNYLDWYLQKPGQSPQLLIYLGSNRASGVPDRFSGSGSGTDFTLKISRVEAEDVGVYYCMQGLQTPFTFGPGTKVEIK
Key: 1

Exercise: Using known records, supply Signal/background for 18081-H11 (scFv, scFv in bacterial lysate, detected with anti-Flag M2) scFv: EVQLLESGPALVKPTQTLTLTCTFSGFSFTTHKMGVDWIRQPPGKALEWLALIYWNDDKRYSPSLQSRLTITKDTSKNQVVLTMTNMDPVDTATYYCAYRRYNWNYENWFDPWGQGTLVTVSSGGGGSGGGGSGGGGSELQMTQSPSSLSASVGDRVTITCQASQDISNYLNWYQQKPGKAPKLLIYAASSLQSGVPSRFSGSGSGTDFTLTISSLQPEDFATYYCQQSYTTPFTFGPGTKVEIK
Key: 1.1

Exercise: Using known records, supply Signal/background for 18089-D12 (scFv, scFv in bacterial lysate, detected with anti-Flag M2) scFv: EVQLLESGGGVVQPGRSLRLSCAASGFTFSTYGMHWVRQAPGKGLEWVAVISYDGSNKYYADSVKGRFTISRDDSKNTLYLQMNSLRAEDTAVYYCARGQLLTGYWGQGTLVTVSSGGGGSGGGGSGGGGSELVMTQSPSSLSASVGDRVTITCRASQGISNYLAWYQQKPGKVPKLLIYAASTLQSGVPSRFSGSGSGTDFTLTISSLQPEDVATYYCQKYNSAPFTFGPGTKVEIK
Key: 1.3
